- TARGET_OF_ASSAY: HLA-DR DRB1*1101 (human)
- TEST_SUMMARY: competition with 125I-labelled peptide, purified HLA
ATTRIBUTE_MEASURED: pIC50
As a rule, pIC50 stands for the negative log10 of the concentration, concentration in M.

Consider the worked cases shown below.
- BINDER: "TKKMVTQRTIGKKKQ (modifications not checked) [Flu.PB1.199]"
  ATTRIBUTE_MEASURED: "pIC50"
  REPORTED_VALUE: 6.35
- BINDER: "SLMLQIGNMISIWVSHS (modifications not checked) [Flu.NA.21]"
  ATTRIBUTE_MEASURED: "pIC50"
  REPORTED_VALUE: 7.08

Ask: Name the recorded pIC50 of the binder listed here: YIQMCTELKLSDYEG (modifications not checked) [Flu.NP.43]
Reply: 5.23
